Assay details: Pharmacokinetic evaluation after single iv and po administration
Assay type: in vivo, male CD-1 mice
Test conditions: male, CD-1, mouse, plasma, iv, 1 mg/kg
Quantity kind: half-life (min)

[
  {
    "Compound": "CCn1nc2c(c1Nc1nc(-c3ccc(-n4cnc(C)c4)c(OC)n3)cs1)CCC2 [Compound 64]",
    "Quantity kind": "half-life",
    "Readout units": "min",
    "Value reported": 42
  }
]

----------
Assay details: Pharmacokinetic evaluation after single iv and po administration
Assay type: in vivo, male CD-1 mice
Test conditions: po, mice, accounting for first-pass effects
Quantity kind: Fraction of oral dose absorbed

[
  {
    "Molecule": "CCn1nc(C(F)(F)F)cc1Nc1nc(-c2ccc(-n3cnc(C)c3)c(OC)n2)cs1",
    "Quantity kind": "Fraction of oral dose absorbed",
    "Value reported": "greater than 80%"
  },
  {
    "Molecule": "CCn1nc2c(c1Nc1nc(-c3ccc(-n4cnc(C)c4)c(OC)n3)cs1)CCC2",
    "Quantity kind": "Fraction of oral dose absorbed",
    "Value reported": "greater than 80%"
  },
  {
    "Molecule": "COc1nc(-c2csc(Nc3c4c(nn3C)CCC4)n2)ccc1-n1cnc(C)c1",
    "Quantity kind": "Fraction of oral dose absorbed",
    "Value reported": "greater than 80%"
  },
  {
    "Molecule": "CCn1nc2c(c1Nc1nc(-c3ccc(-n4cnc(C)c4)c(OC)n3)cs1)CCCC2 [Compound 22d]",
    "Quantity kind": "Fraction of oral dose absorbed",
    "Value reported": "~90%"
  }
]

----------
Assay details: Pharmacokinetic evaluation after single iv and po administration
Assay type: in vivo, male CD-1 mice
Test conditions: male, CD-1, mouse, plasma, iv, 1 mg/kg
Parameter clearance at 24 h: see the listing below.
Quantity kind: clearance at 24 h

[
  {
    "Smiles": "COc1nc(-c2csc(Nc3c4c(nn3CCF)CCCC4)n2)ccc1-n1cnc(C)c1",
    "Value reported": "57.8 mL/min/kg"
  },
  {
    "Smiles": "CCn1nc(C(F)(F)F)cc1Nc1nc(-c2ccc(-n3cnc(C)c3)c(OC)n2)cs1",
    "Value reported": "26.8 mL/min/kg"
  },
  {
    "Smiles": "CCn1nc2c(c1Nc1nc(-c3ccc(-n4cnc(C)c4)c(OC)n3)cs1)CCC2",
    "Value reported": "43.5 mL/min/kg"
  },
  {
    "Smiles": "CCn1nc(C2(C)CC2)cc1Nc1nc(-c2ccc(-n3cnc(C)c3)c(OC)n2)cs1",
    "Value reported": "12.1 mL/min/kg"
  },
  {
    "Smiles": "COc1nc(-c2csc(Nc3c4c(nn3C)CCC4)n2)ccc1-n1cnc(C)c1",
    "Value reported": "21.8 mL/min/kg"
  }
]
